Kindly supply the reported log10(MIC) values for the records listed here.
system: Pichia kudriavzevii; test: Antimicrobial activity against Candida krusei ATCC 6258 by Alamar blue method; type: functional, organism-based
Scale: decimal log of MIC, MIC in µg/mL.

Record summary for `COc1ccccc1CSc1cc2ccccc2[n+](CCCCCC2CCCCC2)c1.[I-]` : reported log10(MIC) = 0.40

Record summary for `FC(F)(F)c1cccc(CSc2cc3ccccc3[n+](CCCCCC3CCCCC3)c2)c1.[I-]` : reported log10(MIC) = 0.40

Record summary for `[I-].c1ccc(CSc2cc3ccccc3[n+](CCCCCC3CCCCC3)c2)cc1` : reported log10(MIC) = 0.11

Record summary for `Ic1cc2ccccc2[n+](CCCCCC2CCCCC2)c1.[I-]` : reported log10(MIC) = 1.00

Record summary for `OC(Cn1cncn1)(Cn1cncn1)c1ccc(F)cc1F` : reported log10(MIC) = 1.70

Record summary for `Brc1cccc(CSc2cc3ccccc3[n+](CCCCCC3CCCCC3)c2)c1.[I-]` : reported log10(MIC) = -0.20

Record summary for `Brc1ccccc1CSc1cc2ccccc2[n+](CCCCCC2CCCCC2)c1.[I-]` : reported log10(MIC) = 0.11

Record summary for `Cc1cccc(CSc2cc3ccccc3[n+](CCCCCC3CCCCC3)c2)c1.[I-]` : reported log10(MIC) = 0.40

Record summary for `FC(F)(F)c1ccccc1CSc1cc2ccccc2[n+](CCCCCC2CCCCC2)c1.[I-]` : reported log10(MIC) = 0.11

Record summary for `N#Cc1ccccc1CSc1cc2ccccc2[n+](CCCCCC2CCCCC2)c1.[I-]` : reported log10(MIC) = 0.70

Record summary for `Brc1ccc(CSc2cc3ccccc3[n+](CCCCCC3CCCCC3)c2)cc1.[I-]` : reported log10(MIC) = -0.20

Record summary for `[I-].c1ccc2cc(Sc3cc4ccccc4[n+](CCCCCC4CCCCC4)c3)ccc2c1` : reported log10(MIC) = -0.20

Record summary for `Clc1ccccc1CSc1cc2ccccc2[n+](CCCCCC2CCCCC2)c1.[I-]` : reported log10(MIC) = 0.40

Record summary for `Fc1cccc(CSc2cc3ccccc3[n+](CCCCCC3CCCCC3)c2)c1.[I-]` : reported log10(MIC) = 0.11

Record summary for `FC(F)(F)c1ccc(CSc2cc3ccccc3[n+](CCCCCC3CCCCC3)c2)cc1.[I-]` : reported log10(MIC) = 0.11
